PBM E-score values by entry
EXPERIMENTAL_SYSTEM: Nrg2 (UniProt P38082)
Sequence: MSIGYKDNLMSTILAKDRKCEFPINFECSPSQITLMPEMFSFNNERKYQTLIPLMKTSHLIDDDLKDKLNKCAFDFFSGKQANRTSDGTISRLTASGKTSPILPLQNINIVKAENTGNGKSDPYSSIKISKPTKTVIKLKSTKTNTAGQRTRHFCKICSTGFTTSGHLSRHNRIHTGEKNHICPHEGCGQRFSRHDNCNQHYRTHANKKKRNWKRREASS
TEST_NAME: PBM E-score (8-mer binding enrichment) (E-score (-0.5 to 0.5)); higher = stronger / more preferred TF binding
TEST_CONDITIONS: protein concentration: 100 nM; construct: GST-full length
The full ranking holds about 33,000 sequences; the median of “E-score (-0.5 to 0.5)” is about -8e-05, and the highest 2% start at about 0.23. This excerpt belongs to a sample that is enriched for the highest values.

SEQ_TEXT	PBM E-score
ACGACTAT	0.0778
ATTAACCG	0.107
GGAGGCAA	-0.141
ATACGCAA	0.232
AGTTAGGG	0.0307
ATATAGTC	0.196
CCGACGAC	0.00776
CTATATAA	0.0499
AATCGTGT	0.164
ATACATAT	0.235
ACTCTATG	0.056
GCGCTGGA	0.0138
GCCGCGCA	-0.0674
GTACGCAA	-0.131
CATCTCTC	0.148
